- System: H3K27me3 mark in HeLa cells (EZH2)
- measurement-protocol: H3K27me3 Alpha Hela Assay (AlphaLISA)
- Type: cell-based
- measurement-parameters: HeLa cells, 72 hrs; read-out: EZH2 Cell H3K27me3 Alpha HeLa (EC50 K27me3)
pEC50: −log10 of the molar value.
result-type: pEC50

[
  {
    "compound": "CSc1cc(C)[nH]c(=O)c1CNC(=O)c1c(C)n([C@H](C)C2CCC(OC(F)F)CC2)c2ccccc12 (single isomer, unassigned) [60 (isomer 2)]",
    "result": "> 8.00"
  },
  {
    "compound": "CSc1cc(C)[nH]c(=O)c1CNC(=O)c1c(C)n([C@H](C)C2CCC(OC3COC3)CC2)c2ccccc12 (single isomer, unassigned) [137 (isomer 2)]",
    "result": "> 8.00"
  },
  {
    "compound": "CSc1cc(C)[nH]c(=O)c1CNC(=O)c1c(C)n([C@H](C)C2CCC(NC3(CF)COC3)CC2)c2ncncc12 (single isomer, unassigned) [156 (isomer 2)]",
    "result": "7.00 to 8.00"
  },
  {
    "compound": "CSc1cc(C)[nH]c(=O)c1CNC(=O)c1c(C)n([C@H](C)C2CCC(N3CCOCC3)CC2)c2ccccc12 (single isomer, unassigned) [75 (isomer 2)]",
    "result": "7.00 to 8.00"
  },
  {
    "compound": "CSc1cc(C)[nH]c(=O)c1CNC(=O)c1c(C)n([C@@H](C)[C@H]2OC[C@@H](N3CCC34COC4)CO2)c2ccccc12 (single isomer, unassigned; isomer 1) [151 (isomer 1)]",
    "result": "< 7.00"
  },
  {
    "compound": "CSc1cc(C)[nH]c(=O)c1CNC(=O)c1c(C)n([C@H](C)C2OCC(N3CCC3(C)C)CO2)c2ccccc12 (single isomer, unassigned) [15 (isomer 1)]",
    "result": "> 8.00"
  },
  {
    "compound": "CSc1cc(C)[nH]c(=O)c1CNC(=O)c1c(C)n([C@H](C)C2OCC(N3CC(C)(C)C3)CO2)c2ccccc12 (single isomer, unassigned) [78 (isomer 1)]",
    "result": "7.00 to 8.00"
  },
  {
    "compound": "CSc1cc(C)[nH]c(=O)c1CNC(=O)c1c(C)n([C@H](C)C2CCC(NC3(CO)COC3)CC2)c2cc(F)ccc12 (single isomer, unassigned) [159 (isomer 2)]",
    "result": "7.00 to 8.00"
  },
  {
    "compound": "CSc1cc(C)[nH]c(=O)c1CNC(=O)c1c(C)n([C@H](C)C2CCC(N(C)C)CC2)c2ncccc12 (single isomer, unassigned) [51 (isomer 2)]",
    "result": "< 7.00"
  },
  {
    "compound": "CSc1cc(C)[nH]c(=O)c1CNC(=O)c1c(C)n([C@H](C)C2OCC(N3CC(F)(F)C3)CO2)c2ccccc12 (single isomer, unassigned) [85 (isomer 2)]",
    "result": "< 7.00"
  },
  {
    "compound": "COCCOC1CCC([C@@H](C)n2c(C)c(C(=O)NCc3c(SC)cc(C)[nH]c3=O)c3ccccc32)CC1 (single isomer, unassigned) [67 (isomer 2)]",
    "result": "> 8.00"
  }
]
